Where a name gives a salt, the structure may show the parent alone.
observation-type: flash point

Look over these answered cases.
- molecule: "CCC(C)=NO [N-butan-2-ylidenehydroxylamine]"
  reported-measurement: "59.00 °C"
- molecule: "CCCCOC=O [butyl formate]"
  reported-measurement: "18.00 °C"

Provide reported flash point for each item, in the same order as listed.
1. O=C(Cl)c1ccc(C(=O)Cl)cc1 [benzene-1,4-dicarbonyl chloride]
2. Cc1ccc(C)cc1.Cc1cccc(C)c1.Cc1ccccc1C [1,2-xylene;1,3-xylene;1,4-xylene]
3. CCCCC(CC)COP(OCC(CC)CCCC)OCC(CC)CCCC (stereo not given) [tris(2-ethylhexyl) phosphite]
4. CCCCCCCCCCCCCCCCS [hexadecane-1-thiol]
5. CCC(CC)COC(C)=O [2-ethylbutyl acetate]

["180.00 °C", "25.00 °C", "171.00 °C", "102.00 °C", "54.00 °C"]

Provide reported flash point for each item, in the same order as listed.
1. Cc1ccc(S(=O)(=O)Cl)cc1 [4-methylbenzenesulfonyl chloride]
2. O=[N+]([O-])c1ccc(Nc2ccccc2)cc1 [4-nitro-N-phenylaniline]
3. Oc1ccc(Cl)cc1 [4-chlorophenol]

1: 128.00 °C; 2: 190.00 °C; 3: 121.00 °C

* * *

Give flash point for every item shown.
Give bare numbers, in °C.

Look over these answered cases.
- molecule: "COC(C)COC(C)=O (configuration not stated) [2-methoxypropyl acetate]"
  units-symbol: "°C"
  flash point: 25.00
- molecule: "CCCCCCCCCC(=O)O [decanoic acid]"
  units-symbol: "°C"
  flash point: 113.00
- molecule: "OCC(O)CCl (configuration not stated) [3-chloropropane-1,2-diol]"
  units-symbol: "°C"
  flash point: 59.00

Provide reported flash point for each item, in the same order as listed.
1. C=CC(=O)OCCCCCCCC [octyl prop-2-enoate]
2. CCCCCCCC=O [octanal]
3. C=CCOCC1CO1 (configuration not stated) [2-(prop-2-enoxymethyl)oxirane]
4. ClCC(Br)CBr (configuration not stated) [1,2-dibromo-3-chloropropane]
5. c1ccc(N(c2ccccc2)c2ccccc2)cc1 [N,N-diphenylaniline]
6. Nc1ccccc1 [aniline]

1: 82.00; 2: 52.00; 3: 57.00; 4: 77.00; 5: 180.00; 6: 70.00

* * *

Give flash point for every item shown.
Give bare numbers, in °C.

- compound: "C=C(C)C1CCC2=CC(=O)CC(C)C2(C)C1 (configuration not stated)"
  flash point (°C): 100.00
- compound: "CCCCCOC(C)=O [pentyl acetate]"
  flash point (°C): 33.00
- compound: "CC(C)CO"
  flash point (°C): 28.00
- compound: "CC(=O)OC(C)=O [acetyl acetate]"
  flash point (°C): 49.00
- compound: "CC"
  flash point (°C): -135.00

Provide reported flash point for each item, in the same order as listed.
1. COC(=O)/C=C(\C)OP(=O)(OC)OC [methyl (E)-3-dimethoxyphosphoryloxybut-2-enoate]
2. OCC(CO)(CO)CO [2,2-bis(hydroxymethyl)propane-1,3-diol]
3. CCCCOP(=O)(O)OCCCC [dibutyl hydrogen phosphate]
4. Nc1ccccc1F
5. CCC(=O)OC(=O)CC [propanoyl propanoate]

[79.00, 240.00, 188.00, 60.00, 63.00]

Provide reported flash point for each item, in the same order as listed.
1. Oc1cccc(O)c1
2. CN1CCCC1c1cccnc1 (configuration not stated)

[127.00, 101.00]

* * *

flash point class ranges: low range (below 10 °C), mid range (10 °C to below 100 °C), high range (100 °C or more)

# example entries with known answers
- molecule: "CCCCCCCCC/C=C/CC1CC(=O)OC1=O (stereo unspecified) [3-[(E)-dodec-2-enyl]oxolane-2,5-dione]"
  class-label: "high range"
- molecule: "C=CC(F)(F)C(F)(F)C(F)(F)C(F)(F)F"
  class-label: "low range"
- molecule: "Nc1ccc(N)cc1"
  class-label: "high range"
- molecule: "C=CC=C"
  class-label: "low range"
- molecule: "CCCCCCS"
  class-label: "mid range"
- molecule: "C=CC(=O)Cl [prop-2-enoyl chloride]"
  class-label: "mid range"
- molecule: "C[N+](=O)[O-]"
  class-label: "mid range"
- molecule: "CCCCCCCCCCCCCCCC[Si](Cl)(Cl)Cl"
  class-label: "high range"

Assign a bin to Clc1ccc(Cl)c(Cl)c1
high range

Assign a bin to CCCCS
mid range

Assign a bin to COCCOCCOC
mid range

* * *

observation-type: flash point (°C)
Numbers only, in °C.

Look over these answered cases.
- molecule: "C1=Cc2ccccc2C1"
  flash point (°C): 78.00
- molecule: "C1=CC(c2ccc(C3CC=CCC3)cc2)CCC1 (stereo not given)"
  flash point (°C): 157.00
- molecule: "CC(C)CCCCCCCOC(=O)c1ccccc1C(=O)OCCCCCCCC(C)C [bis(8-methylnonyl) benzene-1,2-dicarboxylate]"
  flash point (°C): 232.00
- molecule: "CCN(C)N=O [N-ethyl-N-methylnitrous amide]"
  flash point (°C): 76.00
- molecule: "Oc1ccccc1Br"
  flash point (°C): 42.00
- molecule: "COC(C)(C)CC(C)=O"
  flash point (°C): 61.00
- molecule: "CCCCOC(=O)c1ccccc1C(=O)OCc1ccccc1 [2-O-benzyl 1-O-butyl benzene-1,2-dicarboxylate]"
  flash point (°C): 199.00
- molecule: "C=O"
  flash point (°C): 60.00
- molecule: "O=NN1CCCC1"
  flash point (°C): 83.00

Pending molecule:
Give the measured flash point of ClCCCCl .
21.00

* * *

Give flash point for every item shown.
Answers are plain numbers, in °C.

Look over these answered cases.
- compound: "C[Si](C)(C)N[Si](C)(C)C [[dimethyl-(trimethylsilylamino)silyl]methane]"
  flash point, °C: 9.00
- compound: "FCC1CO1 (stereo not given)"
  flash point, °C: 4.00

Provide reported flash point for each item, in the same order as listed.
1. CCCCCCOC(=O)CCCCCCCC(=O)OCCCCCC [dihexyl nonanedioate]
2. CC(=O)Br [acetyl bromide]
3. CCOC(C)=O [ethyl acetate]

1: 204.00; 2: 75.00; 3: -4.00

Provide reported flash point for each item, in the same order as listed.
1. O=[N+]([O-])c1cc(Cl)ccc1Cl
2. CC(C)(O)C#N [2-hydroxy-2-methylpropanenitrile]
3. CC(C)c1cc(OO)cc(C(C)C)c1 [1-hydroperoxy-3,5-di(propan-2-yl)benzene]
4. Oc1cccc2c(O)cccc12
5. CC1(C)C2CCC1(C)C(OC(=O)CSC#N)C2 (stereo not given)

1: 135.00; 2: 74.00; 3: 79.00; 4: 252.00; 5: 82.00

* * *

Give flash point for every item shown.
Give bare numbers, in °C.

Look over these answered cases.
- compound: "S=C1NCCN1"
  reported-measurement: 252.00
- compound: "Nc1ccc(F)cc1F"
  reported-measurement: 63.00
- compound: "Fc1ccccc1"
  reported-measurement: -15.00
- compound: "NCCNCCNCCN [N'-[2-(2-aminoethylamino)ethyl]ethane-1,2-diamine]"
  reported-measurement: 135.00
- compound: "C1CNCCN1"
  reported-measurement: 88.00

Provide reported flash point for each item, in the same order as listed.
1. N#CCCCCC#N
2. BrCC1CO1 (stereo not drawn)

93.00
56.00

Provide reported flash point for each item, in the same order as listed.
1. COc1cc(-c2ccc(N)c(OC)c2)ccc1N
2. c1ccc(C2CO2)cc1 (stereo not drawn)

1. 206.00
2. 79.00

Provide reported flash point for each item, in the same order as listed.
1. CC(=O)C1C(=O)C=C(C)OC1=O (stereo not drawn)
2. CCCCCCCCCc1ccc(OCCOCCOCCOCCOCCOCCOCCOCCOCCO)cc1
3. Oc1cccc(Br)c1
4. ClC=CCl
5. O=C1OC(=O)c2cccc3cccc1c23
6. Oc1ccc(Cl)cc1Cl
7. CC(C)CC(O)CC(C)C
8. C=CC(=O)OCC(CC)CCCC (stereo not drawn) [2-ethylhexyl prop-2-enoate]

[69.00, 197.00, 110.00, 4.00, 272.00, 114.00, 74.00, 82.00]

* * *

observation-type: flash point (°C)
Numbers only, in °C.

Look over these answered cases.
- compound: "CCCCCCCC[Si](C)(C)Cl [n-Octyldimethylchlorosilane]"
  observation-type: "flash point"
  reported-measurement: 97.00
- compound: "CCCC(C)[Si](Cl)(Cl)Cl (stereo not drawn) [sec-Amyltrichlorosilane]"
  observation-type: "flash point"
  reported-measurement: 30.00
- compound: "C=C(CCl)C[Si](C)(C)C [2-Chloromethyl-3-trimethylsilyl-1-propene]"
  observation-type: "flash point"
  reported-measurement: 43.00
- compound: "CCCCCCCCCCCCCCCC[Si](Cl)(Cl)Cl [Hexadecyltrichlorosilane]"
  observation-type: "flash point"
  reported-measurement: 154.00
- compound: "CCCCCCCCCC[Si](C)(Cl)Cl [n-Decylmethyldichlorosilane]"
  observation-type: "flash point"
  reported-measurement: 120.00
- compound: "Cl[Si](Cl)(Cl)C1CCCCC1 [Cyclohexyltrichlorosilane]"
  observation-type: "flash point"
  reported-measurement: 85.00
- compound: "C[Si](C)(Cl)CCC(F)(F)F [Chlorodimethyl(3,3,3-trifluoropropyl) silane]"
  observation-type: "flash point"
  reported-measurement: 20.00
- compound: "C[Si](C)(Cl)Cl [Dimethyldichlorosilane]"
  observation-type: "flash point"
  reported-measurement: -16.00
- compound: "C=C[Si](OCC)(OCC)OCC [Vinyltriethoxysilane]"
  observation-type: "flash point"
  reported-measurement: 34.00
- compound: "CC(C)(C)[Si](C)(C)Cl [t-Butyldimethylchlorosilane]"
  observation-type: "flash point"
  reported-measurement: 22.00

Provide reported flash point for each item, in the same order as listed.
1. CCCCCC#C[Si](C)(C)C [1-Heptynyltrimethylsilane]
2. CCN(CC)[Si](C)(C)N(CC)CC [Bis(diethylamino)dimethylsilane]
3. CN(C)[Si](C)(C)N(C)C [Bis(dimethylamino)dimethylsilane]

42.00
35.00
-7.00

Provide reported flash point for each item, in the same order as listed.
1. CCO[Si](CCC#N)(OCC)OCC [2-Cyanoethyltriethoxysilane]
2. CCCC[Si](Cl)(Cl)Cl [n-Butyltrichlorosilane]
3. CCCCCCCCCCCC[Si](Cl)(Cl)Cl [n-Dodecyltrichlorosilane]
4. CC(C)(C)[Si](C)(C)O [t-Butyldimethylsilanol]
5. C[Si](C)(C)c1ccc(Cl)cc1 [p-Chlorophenyltrimethylsilane]
6. C[Si](C)(C)O[Si](C)(C)O[Si](C)(C)O[Si](C)(C)O[Si](C)(C)O[Si](C)(C)C [Tetradecamethylhexasiloxane]
7. CN([Si](C)(C)C)[Si](C)(C)C [Heptamethyldisilazane]

86.00
54.00
162.00
45.00
49.00
102.00
27.00

Provide reported flash point for each item, in the same order as listed.
1. CO[Si](CCCCl)(OC)OC [3-Chloropropyltrimethoxysilane]
2. CC(C)(C)O[Si](C)(C)C [t-Butoxytrimethylsilane]

[75.00, 14.00]

Provide reported flash point for each item, in the same order as listed.
1. CCCCCC[Si](OC)(OC)OC [Hexyltrimethoxysilane]
2. C[SiH](C)c1c(F)c(F)c(F)c(F)c1F [Dimethyl(pentafluorophenyl) silane]
3. C=CC=CO[Si](C)(C)C [1-(Trimethylsiloxy)-1,3-butadiene]
4. C[Si](C)(C)O[Si](C)(C)O[Si](C)(C)O[Si](C)(C)O[Si](C)(C)C [Dodecamethylpentasiloxane]
5. CCO[Si](C)(C)OCC [Dimethyldiethoxysilane]
6. Cl[SiH](Cl)C1CCCC1 [Cyclopentyldichlorosilane]

1. 62.00
2. 40.00
3. 25.00
4. 79.00
5. 11.00
6. 43.00
